Counter-ions that a name gives are not always drawn.
Dear all, this message contains IC50 results, target or system UniProtKB Q13627.
experimental-endpoint: IC50

{"columns": ["compound", "value-measured"],
 "data": [
  ["O=C(c1ccc(Nc2cc(NC3CCCCC3)c3c(C(F)(F)F)c[nH]c3n2)c2c1OCCO2)N1CCOCC1 [Example 154]", "0.301 to 1 µM"],
  ["CCNc1cc(Nc2ccc(P3(=O)CCN(C4CC4)CC3)cc2OC)nc2[nH]cc(C#N)c12 [Example 147]", "< 0.1 µM"],
  ["CCCNc1cc(Nc2ccc(S(=O)(=O)N3CCOCC3)cc2OC)nc2[nH]ccc12 [Example 12, trifluoroacetate]", "0.301 to 1 µM"],
  ["COc1cc(S(C)(=O)=O)ccc1Nc1cc(NC2CCCC2)c2c(C#N)c[nH]c2n1 [Example 121]", "0.301 to 1 µM"],
  ["CCNc1cc(Nc2ccc(P3(=O)CCN(CC)CC3)cc2OC)nc2[nH]cc(C(F)(F)F)c12 [Example 210]", "< 0.1 µM"],
  ["CCN(C)c1cc(Nc2ccc(C(=O)N3CCC(N4CCOCC4)CC3)c3c2OCCO3)nc2[nH]cc(C(F)(F)F)c12 [Example 51]", "0.301 to 1 µM"],
  ["CNc1cc(Nc2ccc(C(=O)N3CCOCC3)c3c2OCO3)nc2[nH]cc(C(F)(F)F)c12 [Example 38]", "< 0.1 µM"],
  ["CCNc1cc(Nc2ccc(S(=O)(=O)N3CCC(N4CCOCC4)CC3)c3c2OCCO3)nc2[nH]cc(C(F)(F)F)c12 [Example 96]", "0.301 to 1 µM"],
  ["COc1cc(S(C)(=O)=O)ccc1Nc1cc(NC2CCCCC2)c2cc[nH]c2n1 [Example 30]", "0.301 to 1 µM"],
  ["CNc1cc(Nc2ccc(S(C)(=O)=O)cc2OC)nc2[nH]cc(C(F)(F)F)c12 [Example 178]", "< 0.1 µM"],
  ["COC[C@@H](C)Nc1cc(Nc2ccc(S(=O)(=O)N3CCC(N4CCOCC4)CC3)cc2OC)nc2[nH]cc(C(F)(F)F)c12 [Example 196]", "0.301 to 1 µM"],
  ["COCCNc1cc(Nc2ccc(P3(=O)CCN(C4CC4)CC3)cc2OC)nc2[nH]cc(C#N)c12 [Example 148]", "0.301 to 1 µM"],
  ["COc1cc(S(=O)(=O)N2CCC(N3CCOCC3)CC2)ccc1Nc1cc(NCC(C)C)c2cc[nH]c2n1 [Example 21]", "0.301 to 1 µM"],
  ["COc1cc(S(=O)(=O)N2CCOCC2)ccc1Nc1cc(NC(C)C)c2cc[nH]c2n1 [Example 13]", "0.301 to 1 µM"],
  ["COCCNc1cc(Nc2ccc(C(=O)N3CCOCC3)c3c2OCCO3)nc2[nH]cc(Cl)c12 [Example 62]", "0.301 to 1 µM"],
  ["CNc1cc(Nc2ccc(P3(=O)CCN(C4CC4)CC3)cc2OC)nc2[nH]cc(C#N)c12 [Example 146]", "0.301 to 1 µM"],
  ["CNc1cc(Nc2ccc(S(C)(=N)=O)cc2OC)nc2[nH]cc(C(F)(F)F)c12 (stereo not drawn) [Example 103]", "0.301 to 1 µM"],
  ["C=CCNc1cc(Nc2ccc(C(=O)N3CC[C@H](N4CCOCC4)C3)c3c2OCC3)nc2[nH]cc(C(F)(F)F)c12 [Example 262]", "0.101 to 0.3 µM"],
  ["N#Cc1c[nH]c2nc(Nc3ccc(C(=O)N4CCC(N5CCOCC5)CC4)c4c3OCCO4)cc(NC3CCCCC3)c12 [Example 149]", "0.301 to 1 µM"],
  ["COc1cc(S(=O)(=O)N2CCC(N3CCOCC3)CC2)ccc1Nc1cc(NC(C)C)c2c(C(F)(F)F)c[nH]c2n1 [Example 198]", "0.301 to 1 µM"],
  ["CCNc1cc(Nc2ccc(P3(=O)CCN(C(C)=O)CC3)cc2OC)nc2[nH]cc(C(F)(F)F)c12 [Example 42]", "< 0.1 µM"],
  ["CCNc1cc(Nc2ccc(S(=O)(=O)N3CCC(N4CCOCC4)CC3)cc2OC)nc2[nH]cc(Cl)c12 [Example 74]", "0.301 to 1 µM"],
  ["O=S(=O)(c1ccc(Nc2cc(C3CC3)c3c(C(F)(F)F)c[nH]c3n2)c2c1OCCO2)N1CCOCC1 [Example 100]", "< 0.1 µM"],
  ["CCNc1cc(Nc2ccc(P3(=O)CCN(C4CC4)CC3)cc2OC)nc2[nH]cc(C(F)(F)F)c12 [Example 206]", "0.301 to 1 µM"],
  ["CCCNc1cc(Nc2ccc(C(=O)N3CCOCC3)c3c2OCCO3)nc2[nH]cc(C(F)(F)F)c12 [Example 174]", "0.301 to 1 µM"],
  ["CCNc1cc(Nc2ccc(C(=O)N3CCC(N4CCOCC4)CC3)c3c2OCO3)nc2[nH]cc(C(F)(F)F)c12 [Example 37]", "< 0.1 µM"],
  ["CCCNc1cc(Nc2ccc(C(=O)N3CCC(N4CCOCC4)CC3)c3c2OCCO3)nc2[nH]cc(C(F)(F)F)c12 [Example 162]", "0.101 to 0.3 µM"],
  ["CCNc1cc(Nc2ccc(C(=O)N3CCN(C4CC4)CC3)c3c2OCC3)nc2[nH]cc(C(F)(F)F)c12 [Example 250]", "0.101 to 0.3 µM"],
  ["CCCNc1cc(Nc2ccc(S(=O)(=O)N3CCC(N4CCOCC4)CC3)cc2OC)nc2[nH]cc(C#N)c12 [Example 139]", "0.301 to 1 µM"],
  ["CCNc1cc(Nc2ccc(S(C)(=O)=O)cc2OC)nc2[nH]cc(C#N)c12 [Example 124]", "0.301 to 1 µM"]
]}

* * *

Molecular target: LRRK2 (G2019S) (Homo sapiens, UniProt Q5S007, G2019S)
Sequence (Q5S007 970-2527 G2019S limits assumed): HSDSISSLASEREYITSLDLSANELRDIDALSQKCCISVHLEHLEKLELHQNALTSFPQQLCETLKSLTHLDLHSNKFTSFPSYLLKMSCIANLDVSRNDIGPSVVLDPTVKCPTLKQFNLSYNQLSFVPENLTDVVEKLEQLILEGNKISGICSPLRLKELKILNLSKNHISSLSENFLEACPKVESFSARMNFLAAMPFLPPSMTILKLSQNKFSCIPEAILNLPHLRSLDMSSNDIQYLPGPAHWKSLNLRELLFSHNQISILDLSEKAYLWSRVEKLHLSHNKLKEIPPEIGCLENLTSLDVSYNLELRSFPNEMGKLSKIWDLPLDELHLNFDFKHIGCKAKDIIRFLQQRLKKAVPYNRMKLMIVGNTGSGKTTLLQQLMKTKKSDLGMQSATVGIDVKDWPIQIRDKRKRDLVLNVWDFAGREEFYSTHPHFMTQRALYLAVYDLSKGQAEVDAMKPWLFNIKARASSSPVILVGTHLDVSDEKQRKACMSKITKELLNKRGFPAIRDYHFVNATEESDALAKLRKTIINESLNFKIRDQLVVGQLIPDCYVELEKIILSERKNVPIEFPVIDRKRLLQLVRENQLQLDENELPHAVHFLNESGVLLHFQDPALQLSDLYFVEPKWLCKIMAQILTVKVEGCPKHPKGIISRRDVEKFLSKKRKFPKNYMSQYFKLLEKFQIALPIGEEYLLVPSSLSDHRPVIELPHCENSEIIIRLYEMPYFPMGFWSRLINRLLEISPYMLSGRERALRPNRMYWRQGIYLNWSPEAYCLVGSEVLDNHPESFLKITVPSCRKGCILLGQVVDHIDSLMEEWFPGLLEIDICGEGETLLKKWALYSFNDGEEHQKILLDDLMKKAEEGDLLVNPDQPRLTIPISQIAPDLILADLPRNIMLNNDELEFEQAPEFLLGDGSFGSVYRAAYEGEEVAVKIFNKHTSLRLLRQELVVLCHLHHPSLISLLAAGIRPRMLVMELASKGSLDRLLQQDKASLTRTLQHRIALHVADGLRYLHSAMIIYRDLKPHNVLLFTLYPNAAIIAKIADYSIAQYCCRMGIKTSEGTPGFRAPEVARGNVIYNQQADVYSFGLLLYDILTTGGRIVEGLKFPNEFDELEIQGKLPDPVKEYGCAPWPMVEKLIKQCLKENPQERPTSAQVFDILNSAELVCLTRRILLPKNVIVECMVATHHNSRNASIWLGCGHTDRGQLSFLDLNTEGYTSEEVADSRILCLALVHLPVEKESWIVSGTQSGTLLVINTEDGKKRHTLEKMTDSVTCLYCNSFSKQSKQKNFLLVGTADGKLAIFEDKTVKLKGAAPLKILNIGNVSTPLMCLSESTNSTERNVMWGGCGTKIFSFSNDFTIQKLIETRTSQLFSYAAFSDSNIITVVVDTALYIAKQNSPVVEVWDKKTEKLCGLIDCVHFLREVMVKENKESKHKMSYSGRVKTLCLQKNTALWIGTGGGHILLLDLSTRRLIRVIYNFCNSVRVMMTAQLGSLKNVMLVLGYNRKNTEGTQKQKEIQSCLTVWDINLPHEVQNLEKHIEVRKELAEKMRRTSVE
Test: LRRK2 G2019S enzyme inhibition, ADP-Glo kinase assay
pIC50: −log10 of the molar value.
Entries annotated with measured pIC50

{"columns": ["molecule", "pIC50"],
 "data": [
  ["COc1cc(S(=O)(=O)N2CCOCC2)ccc1Nc1cc(C2CC2)c2c(C(F)(F)F)c[nH]c2n1 [Example 222]", "6.00 to 6.52"],
  ["COc1cc(S(C)(=O)=O)ccc1Nc1cc(NCCS(C)(=O)=O)c2c(Cl)c[nH]c2n1 [Example 88]", "6.00 to 6.52"],
  ["CNc1cc(Nc2ccc(S(=O)(=O)N3CCOCC3)cc2OC)nc2[nH]cc(Cl)c12 [Example 64]", "6.00 to 6.52"],
  ["CNc1cc(Nc2ccc(C(=O)N3CCC(N4CCOCC4)CC3)c3c2OCCO3)nc2[nH]cc(C(F)(F)F)c12 [Example 160]", "> 7.00"]
]}

* * *

Molecular target: ALK (L1196M) (Homo sapiens, UniProt Q9UM73, L1196M)
Construct: purchased DiscoverX
Sequence (Q9UM73 19-1620 L1196M): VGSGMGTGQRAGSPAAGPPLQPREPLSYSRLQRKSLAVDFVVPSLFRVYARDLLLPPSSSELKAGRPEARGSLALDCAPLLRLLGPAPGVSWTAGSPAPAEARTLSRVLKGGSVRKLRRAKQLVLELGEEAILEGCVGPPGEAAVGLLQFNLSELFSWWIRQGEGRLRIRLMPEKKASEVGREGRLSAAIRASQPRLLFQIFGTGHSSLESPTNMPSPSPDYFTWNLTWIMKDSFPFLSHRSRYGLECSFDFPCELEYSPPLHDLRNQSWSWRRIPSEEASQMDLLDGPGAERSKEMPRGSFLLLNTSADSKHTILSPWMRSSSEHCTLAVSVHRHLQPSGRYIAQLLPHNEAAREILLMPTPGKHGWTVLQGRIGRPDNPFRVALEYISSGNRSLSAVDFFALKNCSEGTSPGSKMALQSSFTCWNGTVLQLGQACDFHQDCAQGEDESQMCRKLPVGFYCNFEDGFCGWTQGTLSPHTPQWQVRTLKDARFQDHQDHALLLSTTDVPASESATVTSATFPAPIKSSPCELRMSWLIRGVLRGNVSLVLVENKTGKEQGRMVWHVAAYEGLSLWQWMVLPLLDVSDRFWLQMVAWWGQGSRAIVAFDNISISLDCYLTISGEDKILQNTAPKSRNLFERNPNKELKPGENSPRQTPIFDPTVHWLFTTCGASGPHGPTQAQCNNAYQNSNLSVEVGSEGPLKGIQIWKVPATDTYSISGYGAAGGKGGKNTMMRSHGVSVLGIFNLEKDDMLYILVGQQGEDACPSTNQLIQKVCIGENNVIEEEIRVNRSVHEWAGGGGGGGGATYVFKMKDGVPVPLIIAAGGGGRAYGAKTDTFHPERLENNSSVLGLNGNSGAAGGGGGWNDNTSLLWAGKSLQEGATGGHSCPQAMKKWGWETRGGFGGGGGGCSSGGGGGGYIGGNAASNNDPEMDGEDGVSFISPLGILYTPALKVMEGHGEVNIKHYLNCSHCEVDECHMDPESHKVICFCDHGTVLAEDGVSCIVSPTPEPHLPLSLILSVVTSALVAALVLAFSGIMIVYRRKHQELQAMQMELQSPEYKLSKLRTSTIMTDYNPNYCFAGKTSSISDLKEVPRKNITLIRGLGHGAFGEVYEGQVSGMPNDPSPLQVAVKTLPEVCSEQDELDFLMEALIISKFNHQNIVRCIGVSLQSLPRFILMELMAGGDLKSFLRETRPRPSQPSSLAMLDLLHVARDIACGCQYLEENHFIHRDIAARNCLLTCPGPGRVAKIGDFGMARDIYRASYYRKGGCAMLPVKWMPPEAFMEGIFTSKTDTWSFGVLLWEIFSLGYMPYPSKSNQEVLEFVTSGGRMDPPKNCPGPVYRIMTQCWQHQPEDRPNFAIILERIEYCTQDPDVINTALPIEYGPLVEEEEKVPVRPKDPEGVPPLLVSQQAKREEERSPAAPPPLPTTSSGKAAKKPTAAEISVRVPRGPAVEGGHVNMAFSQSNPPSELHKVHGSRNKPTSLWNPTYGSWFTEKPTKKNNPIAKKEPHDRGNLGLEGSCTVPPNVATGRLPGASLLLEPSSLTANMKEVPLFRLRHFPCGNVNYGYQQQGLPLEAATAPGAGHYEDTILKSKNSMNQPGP
Assay: scanMAX Kinase panel (DiscoverX), % control
Type: binding
Settings: <35% = active
So basically: is remaining binding at 1 µM under 20%? Then condition met. Not under? Then condition not met.

{"columns": ["compound", "class"],
 "data": [
  ["CNc1cc(Nc2ccc(P3(=O)CCN(C4CC4)CC3)cc2OC)nc2[nH]cc(C(F)(F)F)c12 [Example 205]", "condition met"],
  ["CNc1cc(Nc2ccc(C(=O)N3CCC(N4CCOCC4)CC3)c3c2OCCO3)nc2[nH]cc(C(F)(F)F)c12 [Example 160]", "condition met"],
  ["CCNc1cc(Nc2ccc(P3(=O)CCN(C4CC4)CC3)cc2OC)nc2[nH]cc(C(F)(F)F)c12 [Example 206]", "condition not met"],
  ["CCCNc1cc(Nc2ccc(C(=O)N3CCC(N4CCOCC4)CC3)c3c2OCCO3)nc2[nH]cc(C(F)(F)F)c12 [Example 162]", "condition met"],
  ["O=C(c1ccc(Nc2cc(C3CC3)c3c(C(F)(F)F)c[nH]c3n2)c2c1CCO2)N1CC[C@@H](N2CCOCC2)C1 [Example 238]", "condition not met"],
  ["COCCNc1cc(Nc2ccc(P3(=O)CCN(C4CC4)CC3)cc2OC)nc2[nH]cc(C(F)(F)F)c12 [Example 207]", "condition met"],
  ["O=C(c1ccc(Nc2cc(C3CC3)c3c(C(F)(F)F)c[nH]c3n2)c2c1CCO2)N1CC[C@H](N2CCOCC2)C1 [Example 237]", "condition met"],
  ["CCNc1cc(Nc2ccc(S(=O)(=O)N3CCC(N4CCOCC4)CC3)c3c2OCCO3)nc2[nH]cc(C(F)(F)F)c12 [Example 96]", "condition not met"],
  ["O=C(c1ccc(Nc2cc(C3CC3)c3c(C(F)(F)F)c[nH]c3n2)c2c1OCCO2)N1CCC(N2CCOCC2)CC1 [Example 221]", "condition not met"],
  ["CCNc1cc(Nc2ccc(C(=O)N3CCC(N4C[C@@H]5C[C@H]4CO5)CC3)c3c2OCC3)nc2[nH]cc(C(F)(F)F)c12 [Example 105]", "condition met"],
  ["CNc1cc(Nc2ccc(S(=O)(=O)N3CCC(N4CCOCC4)CC3)cc2OC)nc2[nH]cc(C(F)(F)F)c12 [Example 184]", "condition not met"],
  ["CNc1cc(Nc2ccc(C(=O)N3CC[C@H](N4CCOCC4)C3)c3c2OCC3)nc2[nH]cc(C(F)(F)F)c12 [Example 217]", "condition met"]
]}
